Lab note: pKi readings collected with Prothrombin (Homo sapiens, UniProt P00734) for the following molecules.
One number for each entry, as −log10 of the molar value.

The examples below pair each entry with its known result.
* COc1cc(Cl)cc(C(=O)Nc2ccc(Cl)cn2)c1NC(=O)c1scc(CN(C)C2=NCCS2)c1Cl | 7.00
* COc1cc(Cl)cc(C(=O)Nc2ccc(Cl)cn2)c1NC(=O)c1scc(CN(C)CCCN(C)C)c1Cl | 6.52
* COc1cc(Cl)cc(C(=O)Nc2ccc(Cl)cn2)c1NC(=O)c1scc(CN(C)C2=NCC(C)O2)c1Cl (stereo unspecified) | 6.39
* CCNC(=O)N(C)Cc1csc(C(=O)Nc2c(OC)cc(Cl)cc2C(=O)Nc2ccc(Cl)cn2)c1Cl | 6.35
* COc1cc(Cl)cc(C(=O)Nc2ccc(Cl)cn2)c1NC(=O)c1scc(CN(C)C2=NCCO2)c1Cl | 7.05

Go through the list and state pKi for each entry.
1. COc1cc(Cl)cc(C(=O)Nc2ccc(Cl)cn2)c1NC(=O)c1scc(CN(C)S(C)(=O)=O)c1Cl
2. COCCN(Cc1csc(C(=O)Nc2c(OC)cc(Cl)cc2C(=O)Nc2ccc(Cl)cn2)c1Cl)C1=NCCO1
3. CN1CCN(Cc2csc(C(=O)Nc3ccc(Cl)cc3C(=O)Nc3ccc(Cl)cc3)c2Cl)CC1

1. 6.47
2. 5.70
3. 6.08

Can you give me pKi for all of these, one by one?
1. COc1cc(Cl)cc(C(=O)Nc2ccc(Cl)cn2)c1NC(=O)c1scc(CN(C)C(C)=N)c1Cl
2. CCN(Cc1csc(C(=O)Nc2c(OC)cc(Cl)cc2C(=O)Nc2ccc(Cl)cn2)c1Cl)C1=NC(C)CO1 (stereo unspecified)
3. CN1CCN(Cc2csc(C(=O)Nc3ccc(Cl)cc3C(=O)Nc3ccc(Cl)cn3)c2Cl)CC1
4. COc1cc(Cl)cc(C(=O)Nc2ccc(Cl)cn2)c1NC(=O)c1scc(CN2CCN(C)CC2)c1Cl

6.04
6.24
6.17
5.82

----------
- Assay Target: Coagulation factor X (Homo sapiens)
- Sequence (P00742 41-179 limits assumed): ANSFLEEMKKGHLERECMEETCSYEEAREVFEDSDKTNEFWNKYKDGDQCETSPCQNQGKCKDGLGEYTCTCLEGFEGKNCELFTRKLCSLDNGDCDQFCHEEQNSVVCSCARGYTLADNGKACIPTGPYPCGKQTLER
- Sequence (P00742 235-488 limits assumed): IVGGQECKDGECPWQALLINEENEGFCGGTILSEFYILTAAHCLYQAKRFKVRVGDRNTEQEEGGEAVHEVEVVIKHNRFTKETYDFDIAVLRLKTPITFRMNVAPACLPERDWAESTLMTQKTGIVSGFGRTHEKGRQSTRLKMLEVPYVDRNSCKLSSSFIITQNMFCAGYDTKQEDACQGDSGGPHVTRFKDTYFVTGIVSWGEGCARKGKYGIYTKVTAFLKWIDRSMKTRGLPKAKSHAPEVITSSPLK
Quantity Name: pKi
Answers are plain numbers, as −log10 of the molar value.

- COc1cc(Cl)cc(C(=O)Nc2ccc(Cl)cn2)c1NC(=O)c1scc(CN(C)CCO)c1Cl: 9.62
- COc1cc(Cl)cc(C(=O)Nc2ccc(Cl)cn2)c1NC(=O)c1scc(CN(C)C2=NCC(C)O2)c1Cl (stereo not given): 9.92
- COc1cc(Cl)cc(C(=O)Nc2ccc(Cl)cn2)c1NC(=O)c1scc(CNC(C)C)c1Cl: 8.85
- CCN(CC)Cc1csc(C(=O)Nc2c(OC)cc(Cl)cc2C(=O)Nc2ccc(Cl)cn2)c1Cl: 9.49

In the following, a different compound is considered.
Measured pKi of `COCCN(Cc1csc(C(=O)Nc2c(OC)cc(Cl)cc2C(=O)Nc2ccc(Cl)cn2)c1Cl)C1=NCCO1` : 9.59

----------
Could you please report measured pKi for the items listed next?
- Assay Target: UniProt P03951
- Sequence (P03951 19-387 limits assumed): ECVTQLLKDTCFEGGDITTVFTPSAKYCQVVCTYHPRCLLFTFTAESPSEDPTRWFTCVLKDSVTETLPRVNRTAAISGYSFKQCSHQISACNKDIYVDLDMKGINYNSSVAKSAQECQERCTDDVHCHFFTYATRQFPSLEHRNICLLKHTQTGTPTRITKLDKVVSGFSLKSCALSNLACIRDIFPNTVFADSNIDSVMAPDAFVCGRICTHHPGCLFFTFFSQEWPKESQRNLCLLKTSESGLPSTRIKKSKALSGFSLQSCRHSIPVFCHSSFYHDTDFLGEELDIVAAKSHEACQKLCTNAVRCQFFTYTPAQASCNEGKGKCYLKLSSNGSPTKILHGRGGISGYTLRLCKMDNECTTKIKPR
- Sequence (P03951 388-625 limits assumed): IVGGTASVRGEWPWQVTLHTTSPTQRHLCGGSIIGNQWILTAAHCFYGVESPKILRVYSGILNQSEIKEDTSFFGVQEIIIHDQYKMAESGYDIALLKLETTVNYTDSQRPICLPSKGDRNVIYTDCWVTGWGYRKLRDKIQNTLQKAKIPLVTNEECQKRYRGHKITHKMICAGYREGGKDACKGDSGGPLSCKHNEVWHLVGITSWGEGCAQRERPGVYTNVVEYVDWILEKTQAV
pKi: −log10 of the molar value.

Worked examples, 2 compounds total:
- CNc1nccn1Cc1csc(C(=O)Nc2c(OC)cc(Cl)cc2C(=O)Nc2ccc(Cl)cn2)c1Cl: < 5.30
- CNCc1csc(C(=O)Nc2c(OC)cc(Cl)cc2C(=O)Nc2ccc(Cl)cn2)c1Cl: < 5.00

Here is another compound to look at.
// `COc1cc(Cl)cc(C(=O)Nc2ccc(Cl)cn2)c1NC(=O)c1scc(CN(C)C2=NCCO2)c1Cl` : pKi value = < 5.00

----------
- Protocol Text: Bioavailability in Beagle dog at 10 mg/kg, po normalized to 1 mg/kg, iv
- Format: ADME, organism-based, Canis lupus familiaris
- Assay Conditions: in vivo
Exercise: for every item that follows, state its recorded bioavailability.

* CNc1nccn1Cc1csc(C(=O)Nc2c(OC)cc(Cl)cc2C(=O)Nc2ccc(Cl)cn2)c1Cl | 98%
* COc1cc(Cl)cc(C(=O)Nc2ccc(Cl)cn2)c1NC(=O)c1scc(CN(C)C2=NCCO2)c1Cl | 56%
* COc1cc(Cl)cc(C(=O)Nc2ccc(Cl)cn2)c1NC(=O)c1scc(CN(C)CCO)c1Cl | > 100%

Consider the additional compound presented here.
Given item `CNCc1csc(C(=O)Nc2c(OC)cc(Cl)cc2C(=O)Nc2ccc(Cl)cn2)c1Cl` , the value recorded as its bioavailability is 75%

----------
For each record, write down the corresponding pKi.
Target sequence: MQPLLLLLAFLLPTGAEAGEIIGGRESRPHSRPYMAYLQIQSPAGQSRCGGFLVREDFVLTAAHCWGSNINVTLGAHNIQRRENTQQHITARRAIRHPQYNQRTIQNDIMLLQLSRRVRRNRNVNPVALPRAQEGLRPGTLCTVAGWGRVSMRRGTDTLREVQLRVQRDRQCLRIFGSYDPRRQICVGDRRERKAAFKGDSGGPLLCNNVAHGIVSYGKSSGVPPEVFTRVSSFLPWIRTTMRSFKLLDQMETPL
pKi: −log10 of the molar value.

Use these answered entries as a reference point.
- CNCc1csc(C(=O)Nc2c(OC)cc(Cl)cc2C(=O)Nc2ccc(Cl)cn2)c1Cl: < 5.00
- COc1cc(Cl)cc(C(=O)Nc2ccc(Cl)cn2)c1NC(=O)c1scc(CN(C)C2=NCCO2)c1Cl: < 5.00

`CNc1nccn1Cc1csc(C(=O)Nc2c(OC)cc(Cl)cc2C(=O)Nc2ccc(Cl)cn2)c1Cl` has a reported pKi of < 5.30

----------
Record: log10 of Ki reported on Prothrombin (Homo sapiens, UniProt P00734).
Scale: decimal log of Ki, Ki in nM.

Record excerpt, results attached:
- COc1cc(Cl)cc(C(=O)Nc2ccc(Cl)cn2)c1NC(=O)c1scc(Cn2ccnc2)c1Cl: 2.71
- COc1cc(Cl)cc(C(=O)Nc2ccc(Cl)cn2)c1NC(=O)c1scc(CN(C)CCCO)c1Cl: 3.04
- CCN(C)Cc1csc(C(=O)Nc2c(OC)cc(Cl)cc2C(=O)Nc2ccc(Cl)cn2)c1Cl: 3.23

Kindly give each listed record's log10 of Ki.
1. CCNc1nccn1Cc1csc(C(=O)Nc2c(OC)cc(Cl)cc2C(=O)Nc2ccc(Cl)cn2)c1Cl
2. COc1cc(Cl)cc(C(=O)Nc2ccc(Cl)cn2)c1NC(=O)c1scc(CN(C)C(=O)NCCN2CCCC2)c1Cl
3. COc1cc(Cl)cc(C(=O)Nc2ccc(Cl)cn2)c1NC(=O)c1scc(Cn2ccnc2C)c1Cl
4. CNCc1csc(C(=O)Nc2c(OC)cc(Cl)cc2C(=O)Nc2ccc(Cl)cn2)c1Cl

1. 3.04
2. 2.15
3. 2.64
4. 3.57

# return log10 of Ki for each item in the list
1. COc1cc(Cl)cc(C(=O)Nc2ccc(Cl)cn2)c1NC(=O)c1scc(CN(C)C(=N)N)c1Cl
2. COc1cc(Cl)cc(C(=O)Nc2ccc(Cl)cn2)c1NC(=O)c1scc(CN2CCNC2=N)c1Cl

1. 2.80
2. 3.18

----------
- Protocol Text: Cmax in Beagle dog at 10 mg/kg, po
- Type: ADME, organism-based, Canis lupus familiaris
- Design: dose 10 mg/kg, route oral
- Assay Conditions: in vivo
Field: Cmax. Provide a value for each of the molecules that follow.
Give bare numbers, in ng/mL.

Field: Cmax. Fill in for each record below.
1. COc1cc(Cl)cc(C(=O)Nc2ccc(Cl)cn2)c1NC(=O)c1scc(CN(C)C2=NCCO2)c1Cl
2. CNCc1csc(C(=O)Nc2c(OC)cc(Cl)cc2C(=O)Nc2ccc(Cl)cn2)c1Cl
3. CNc1nccn1Cc1csc(C(=O)Nc2c(OC)cc(Cl)cc2C(=O)Nc2ccc(Cl)cn2)c1Cl
4. COc1cc(Cl)cc(C(=O)Nc2ccc(Cl)cn2)c1NC(=O)c1scc(CN(C)CCO)c1Cl

[1900, 5100, 3700, 1200]

----------
- Assay Target: Neutrophil elastase (Homo sapiens)
- Sequence (P08246 whole entry): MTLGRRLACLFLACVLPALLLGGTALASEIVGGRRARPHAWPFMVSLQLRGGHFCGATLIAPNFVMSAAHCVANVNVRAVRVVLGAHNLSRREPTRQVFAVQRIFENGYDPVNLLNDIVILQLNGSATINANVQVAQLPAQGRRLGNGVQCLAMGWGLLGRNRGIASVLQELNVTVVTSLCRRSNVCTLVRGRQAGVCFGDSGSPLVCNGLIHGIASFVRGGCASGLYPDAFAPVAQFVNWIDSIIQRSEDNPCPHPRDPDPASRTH
- Protocol Text: Inhibition of human neutrophil elastase
Could you please report measured Ki for the items listed next?

- CNc1nccn1Cc1csc(C(=O)Nc2c(OC)cc(Cl)cc2C(=O)Nc2ccc(Cl)cn2)c1Cl: > 5 µM

Look up Ki for the entries below, preserving their order.
1. CNCc1csc(C(=O)Nc2c(OC)cc(Cl)cc2C(=O)Nc2ccc(Cl)cn2)c1Cl
2. COc1cc(Cl)cc(C(=O)Nc2ccc(Cl)cn2)c1NC(=O)c1scc(CN(C)C2=NCCO2)c1Cl

10 µM
> 10 µM
